System: glycogen synthase kinase-3 (GSK3A per assay name; protocol says GSK3B)
Assay Overview: GSK3 binders on small-molecule microarrays, primary screen, biochemical, small-molecule microarray, 635 nm fluorescence, GSK3A (AID 1103); note: the record names both GSK3A and GSK3B
Experimental Context: small-molecule microarray binding, fluorescence 635 nm; higher = more signal
Label Y when composite z-score >= 0.2; otherwise N.

Compound: C=C(/C(=C/C[C@@H](OC(C)=O)c1ccccc1OCCO)c1cc(C(=O)OC)ccc1OC)C(C)C
Answer Label: N

Compound: O=C(NCCO)C1=C[C@H](Oc2ccccc2I)[C@@H](O)[C@H](NCc2ccc(F)cc2)C1
Answer Label: N

Compound: NCCCC[C@@H]1NC(=O)[C@H]2C[C@@H](C(=O)NCc3ccc(F)cc3)[C@@H](c3cccc(OCCO)c3)N2C1=O
Answer Label: Y

Compound: COC(=O)[C@@]1(Cc2ccc(OC)cc2)[C@@H]2[C@@H](CC(=O)[C@H]2CC(=O)C(=O)N2CCCC2)CN1C(=O)c1ccccc1
Answer Label: Y

Compound: CC(C)C[C@@H]1NC(=O)[C@@]23C(=O)N[C@@H](Cc4ccccc4)C2[C@H](C)[C@@]2(C)O[C@H]2C3/C=C/C/C=C\CNC(=O)[C@@H](CC(C)C)NC1=O (some centres not stated)
Answer Label: N

Compound: COC(=O)C1=CC(CCCO)=CC(c2ccc(CN3CCCC3)cc2)N(Cc2sc3ccccc3c2Cl)C=C1C(=O)OC (configuration not stated)
Answer Label: Y

Compound: COCCOC(=O)N1C(=O)[C@@]2(c3cc(C#CCC(C(=O)OC)C(=O)OC)ccc31)[C@H](C(=O)N1CCc3cc(OC)c(OC)cc3C1)[C@H]1C(=O)O[C@H](c3ccccc3)[C@H](c3ccccc3)N1[C@@H]2c1ccc(O)cc1
Answer Label: Y

====

Assay Overview: modulators of S6 phosphorylation in cells, primary screen, cell-based, A549, cytoblot, luminescence, serum-stimulated (AID 1158);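 note: serum-stimulated A549 lung adenocarcinoma cells; signal is phosphorylated S6 detected by cytoblot immunostaining with HRP secondary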
Experimental Context: A549 phospho-S6 cytoblot, 5 h, higher = more signal
Readout Name: z-score

Compound: CC(C)CNC(=O)[C@@H]1c2ccccc2C(=O)N(C(C)C)[C@H]1c1ccc(CO)cc1
Observed Result: 1.85
//
Compound: C=C(CC1([C@@H](NP(=O)(c2ccccc2)c2ccccc2)[C@H]2C[C@@H]2CCN(C(=O)OCC)S(=O)(=O)c2ccc(C)cc2)CC1)c1ccccc1
Observed Result: 0.603
//
Compound: NCCCC[C@@H]1NC(=O)[C@H]2C[C@@H](C(=O)NCc3ccc(F)cc3)[C@@H](c3cccc(OCCO)c3)N2C1=O
Observed Result: -0.325
//
Compound: COc1ccc(NN2C(C(O)c3cc(C(F)(F)F)cc(C(F)(F)F)c3)C=CC3C(=O)N(C4CCCCC4)C(=O)C32)cc1 (configuration not stated)
Observed Result: -0.35
//
Compound: CCOC(=O)C[C@H]1[C@H](OC(=O)c2ccc(-c3ccccc3)cc2)[C@@H](NC(=O)CC(C)C)c2cc(OCCCO)ccc2N1C(=O)Cc1ccc(OC)cc1
Observed Result: -0.0775
//
Compound: CCOC(=O)C1=CC[C@@H](c2ccccc2)N(S(=O)(=O)C[Si](C)(C)C)[C@H]1c1ccccc1
Observed Result: -0.692
//
Compound: COCCOC(=O)N1C(=O)[C@@]2(c3cc(C#CC4(O)CCCCCC4)ccc31)[C@H](c1ccc(OCCO)cc1)N1[C@H](c3ccccc3)[C@H](c3ccccc3)OC(=O)[C@H]1[C@@H]2C(=O)N1CCCCCCC1
Observed Result: 0.49

====

Tested on: Sam68 (KHDRBS1)
Assay Overview: Sam68 small-molecule binders, primary screen, biochemical, small-molecule microarray, 635 nm fluorescence (AID 1125);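 note: score merges 667 nm channel intensity with signal to noise over triplicate slides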
Experimental Context: small-molecule microarray binding, higher = more signal
Listed compounds paired with reported composite z-score

Compound: Cc1ccc(S[C@]2(C(=O)NCCN3CCOCC3)CC(=O)N(C3CCCCC3)[C@@H]2c2ccc(CO)cc2I)cc1
composite z-score: 1.27
//
Compound: CO[C@H]1O[C@H](CO)[C@@H](OC(=O)Nc2ccc(C(F)(F)F)cc2)[C@H](OC(=O)Nc2ccccc2-c2ccccc2)[C@@H]1OC(=O)Nc1ccccc1-c1ccccc1
composite z-score: 1.29
//
Compound: CC(C)(C)OC(=O)CC[C@]1(C(N)=O)N=C(c2ccc(OCCCO)cc2)O[C@H]1c1ccccc1CN=[N+]=[N-]
composite z-score: 1.33
//
Compound: COc1cc(OC)c(C(O)C2C=CC3C(=O)N(c4ccccc4)C(=O)C3N2Nc2ccccc2F)cc1Br (stereo not drawn)
composite z-score: 1.34
//
Compound: COC(=O)[C@@]1(Cc2ccccc2CN=[N+]=[N-])COC(c2ccc(OCCCO)cc2)=N1
composite z-score: 0.424
//
Compound: N#Cc1ccc(C(O)C2C=CC3C(=O)N(c4ccccc4)C(=O)C3N2Nc2ccc([N+](=O)[O-])cc2)cc1 (stereo not drawn)
composite z-score: 1.28
//
Compound: CC(C)C(=C=CC[C@@H](O)c1ccc(OCCO)cc1)CCO
composite z-score: 0.275
//
Compound: C=C(/C(=C/C[C@@H](OC(C)=O)c1ccccc1OCCO)c1cc(C(=O)OC)ccc1OC)C(C)C
composite z-score: 0.373

====

Assay Overview: small-molecule microarray binders of probe aShh, primary screen, biochemical, biotinylated probe, 635/667 nm fluorescence (AID 1114);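 note: probe is biotin-labelled aShh protein from a stem cell growth factor screen; measures binding of labelled protein to compounds printed on the slide; score merges feature fluorescence at 667 nm with signal-to-noise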
Experimental Context: higher = more signal
composite z-score vs -0.08: at or above is TRUE, below is FALSE.

Compound: CCCC[C@@H](O)C1=C(COC)Cn2c(=O)n(-c3ccccc3)c(=O)n2[C@H]1CO
Answer Label: FALSE
//
Compound: CCOC(=O)C[C@H]1[C@H](OC(=O)c2ccc(-c3ccccc3)cc2)[C@@H](NC(=O)CC(C)C)c2cc(OCCCO)ccc2N1C(=O)Cc1ccc(OC)cc1
Answer Label: FALSE
//
Compound: COc1ccc([Si](C)(C)[C@@H]2[C@@H](CC(=O)N(CCO)Cc3ccccc3)O[C@]3(C(=O)N(Cc4ccc(N5CCC5=O)cc4)c4ccccc43)[C@H]2C)cc1
Answer Label: TRUE
//
Compound: [N-]=[N+]=NCc1ccccc1C[C@]1(C(=O)NCc2ccccc2)N=C(c2ccc(OCCCO)cc2)O[C@H]1c1ccccc1CN=[N+]=[N-]
Answer Label: TRUE
//
Compound: O=C1c2ccccc2[C@](Cc2ccccc2I)(C(=O)O)[C@H](c2ccc(CO)cc2)N1Cc1ccccc1
Answer Label: FALSE
//
Compound: C=CC[C@@]1(C(=O)O)N=C(c2ccc(OCCCO)cc2)O[C@@H]1c1ccccc1CN=[N+]=[N-]
Answer Label: TRUE
//
Compound: COCC(=C=CC[C@@H](O)c1cccc(OCCO)c1)C[C@@H](O)COCc1ccccc1
Answer Label: TRUE
//
Compound: CCCCC=C[C@@H](NC(=O)c1ccc(C(F)(F)F)cc1)c1ccccc1
Answer Label: TRUE
//
Compound: CC(C)[C@@H](C(=O)O)n1cc(-c2ccccc2)nn1
Answer Label: TRUE
//
Compound: C=CCC(OC(C)=O)[C@@H]1[C@@H](N(Cc2cc3ccccc3o2)C(=O)c2ccc(-c3ccccc3)cc2)c2cc(OCCCO)ccc2N1C(=O)c1ccc2ccccc2n1 (stereo not given in full)
Answer Label: FALSE
//
Compound: C=C(CCCC)C(=O)CC[C@H](OC(=O)c1cccnc1)c1ccc(CO)o1
Answer Label: TRUE
//
Compound: C=C(/C(=C/C[C@@H](OC(C)=O)c1ccccc1OCCO)c1cc(C(=O)OC)ccc1OC)C(C)C
Answer Label: FALSE
//
Compound: COc1ccc(NC(=O)O[C@H]2[C@H](OC(=O)Nc3ccc4c(c3)OCO4)[C@H](OC(=O)Nc3ccc4c(c3)OCO4)[C@@H](OC)O[C@@H]2CO)cc1
Answer Label: TRUE
//
Compound: COCCOC(=O)N1C(=O)[C@@]2(c3cc(C#CC4=CCCCC4)ccc31)[C@H](C(=O)N1CCN(c3ncccn3)CC1)[C@H]1C(=O)O[C@H](c3ccccc3)[C@H](c3ccccc3)N1[C@@H]2c1ccccc1OCCO
Answer Label: FALSE

====

Tgt: Neurogenic locus notch homolog protein 2 (Homo sapiens)
Assay Overview: Notch2 binders on small-molecule microarrays, primary screen, biochemical, small-molecule microarray, 635 nm fluorescence, stem cell growth factors (AID 1073)
Experimental Context: Notch2 binding, higher = more signal

Molecule: CCCCC(=C=CC[C@@H](O)c1cccc(OCCO)c1)CCO
composite z-score: -0.277
//
Molecule: CC(C)C[C@@H]1NC(=O)[C@@]23C(=O)N[C@@H](Cc4ccccc4)C2[C@H](C)[C@@]2(C)O[C@H]2C3/C=C/C/C=C\CNC(=O)[C@@H](CC(C)C)NC1=O (stereo partly drawn)
composite z-score: 0.416
//
Molecule: COCCOC(=O)N1C(=O)[C@@]2(c3cc(C#CCCO)ccc31)[C@H](C(=O)N1CCN(c3ncccn3)CC1)[C@H]1C(=O)O[C@H](c3ccccc3)[C@H](c3ccccc3)N1[C@@H]2c1ccc(O)cc1
composite z-score: 0.376
